Field: Ki. Provide a value for each of the molecules that follow.
target: hα4 and β1 integrins (Homo sapiens, UniProt P05556+P13612); assay: In vitro inhibition of binding between CHO cells expressing hα4 and β1 integrins and Eu3+-hVCAM-1 D1D7-IgG; details: CHO cells expressing hα4 and β1 integrins; Eu3+-hVCAM-1 D1D7-IgG ligand; without HSA
Sequence (P13612 34-1032): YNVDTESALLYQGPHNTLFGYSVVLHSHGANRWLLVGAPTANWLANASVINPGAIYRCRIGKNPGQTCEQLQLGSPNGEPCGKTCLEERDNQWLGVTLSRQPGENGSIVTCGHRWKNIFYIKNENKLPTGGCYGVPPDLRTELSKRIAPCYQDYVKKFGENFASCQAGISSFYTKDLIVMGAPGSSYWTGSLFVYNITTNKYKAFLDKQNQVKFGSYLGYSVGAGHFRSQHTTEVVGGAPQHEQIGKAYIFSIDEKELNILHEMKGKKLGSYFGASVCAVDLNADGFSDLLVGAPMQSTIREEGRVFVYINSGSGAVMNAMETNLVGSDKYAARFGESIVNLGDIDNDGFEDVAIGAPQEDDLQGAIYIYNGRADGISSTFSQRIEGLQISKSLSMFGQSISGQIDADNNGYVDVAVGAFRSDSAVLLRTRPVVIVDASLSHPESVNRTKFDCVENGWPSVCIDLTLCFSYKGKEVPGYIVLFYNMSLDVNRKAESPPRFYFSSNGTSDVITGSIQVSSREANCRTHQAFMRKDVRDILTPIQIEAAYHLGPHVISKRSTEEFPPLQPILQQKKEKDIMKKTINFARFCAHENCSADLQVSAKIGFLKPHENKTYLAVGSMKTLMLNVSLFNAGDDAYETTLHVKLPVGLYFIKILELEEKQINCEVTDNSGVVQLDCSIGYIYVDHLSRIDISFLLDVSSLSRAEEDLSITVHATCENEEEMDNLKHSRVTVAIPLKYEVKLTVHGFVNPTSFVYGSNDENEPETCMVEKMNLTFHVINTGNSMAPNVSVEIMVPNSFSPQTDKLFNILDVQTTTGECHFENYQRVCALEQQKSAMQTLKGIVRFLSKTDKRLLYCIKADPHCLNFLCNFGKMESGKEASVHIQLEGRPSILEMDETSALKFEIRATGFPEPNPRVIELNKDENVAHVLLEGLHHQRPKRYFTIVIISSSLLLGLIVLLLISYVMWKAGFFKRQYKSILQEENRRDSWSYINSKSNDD
Sequence (P05556 21-798): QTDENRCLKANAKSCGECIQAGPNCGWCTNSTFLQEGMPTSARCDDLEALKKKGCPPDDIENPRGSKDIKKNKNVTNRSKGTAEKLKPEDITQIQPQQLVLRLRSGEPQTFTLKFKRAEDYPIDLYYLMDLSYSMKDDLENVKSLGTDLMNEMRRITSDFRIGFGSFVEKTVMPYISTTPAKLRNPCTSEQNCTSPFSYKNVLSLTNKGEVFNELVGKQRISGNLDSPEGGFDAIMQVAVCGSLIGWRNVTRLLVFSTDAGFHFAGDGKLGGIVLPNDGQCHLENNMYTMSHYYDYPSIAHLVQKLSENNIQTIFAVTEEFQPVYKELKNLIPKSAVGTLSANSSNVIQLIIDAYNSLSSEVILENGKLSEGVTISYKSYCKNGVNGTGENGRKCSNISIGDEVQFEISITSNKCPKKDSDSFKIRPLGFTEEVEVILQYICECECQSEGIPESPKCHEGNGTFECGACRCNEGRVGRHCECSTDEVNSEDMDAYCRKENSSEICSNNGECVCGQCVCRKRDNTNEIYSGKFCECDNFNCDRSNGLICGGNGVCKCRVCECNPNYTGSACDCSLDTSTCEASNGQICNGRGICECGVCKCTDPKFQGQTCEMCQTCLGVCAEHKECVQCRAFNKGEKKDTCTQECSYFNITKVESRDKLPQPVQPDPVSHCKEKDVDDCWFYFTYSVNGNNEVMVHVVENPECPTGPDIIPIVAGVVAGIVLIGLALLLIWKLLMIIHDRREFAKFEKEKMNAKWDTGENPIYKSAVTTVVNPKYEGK
Numbers only here, please. The scale is nM.

[in] Which measured Ki belongs to Cn1cc(C(=O)Nc2cc(Cl)c(CC(=O)N3C[C@@H](N4CCCOCC4)C[C@H]3CO[C@H]3CC[C@H](C(=O)O)CC3)cc2Cl)c2ccccc21 [Example 165] , tested on hα4 and β1 integrins (Homo sapiens, UniProt P05556+P13612)?
[out] 8.2

[in] API: value(readout=Ki, system=hα4 and β1 integrins (Homo sapiens, UniProt P05556+P13612)) for record Cn1cc(C(=O)Nc2cc(F)c(CC(=O)N3C[C@@H](N4CCOCC4)C[C@H]3CO[C@H]3CC[C@H](C(=O)O)CC3)cc2Cl)c2ccccc21 [Example 78]
[out] 1.5

[in] GET /values?readout=Ki&system=hα4 and β1 integrins (Homo sapiens, UniProt P05556+P13612)&item= O=C(Nc1cc(Cl)c(CC(=O)N2C[C@@H](N3CCCOCC3)C[C@H]2CO[C@H]2CC[C@H](C(=O)O)CC2)cc1Cl)c1coc2ccccc12 [Example 167]
[out] 4.4

[in] Which measured Ki belongs to C[C@@H]1CN([C@H]2C[C@@H](CO[C@H]3CC[C@H](C(=O)O)CC3)N(C(=O)Cc3cc(Cl)c(NC(=O)c4coc5ccccc45)cc3Cl)C2)C[C@H](C)O1 [Example 83] , tested on hα4 and β1 integrins (Homo sapiens, UniProt P05556+P13612)?
[out] 5.2

[in] // fetch hα4 and β1 integrins (Homo sapiens, UniProt P05556+P13612) Ki for CN1CCN([C@H]2C[C@@H](CO[C@H]3CC[C@H](C(=O)O)CC3)N(C(=O)Cc3cc(Cl)c(NC(=O)c4csc5ccccc45)cc3F)C2)CC1 [Example 111]
[out] 0.29

[in] What Ki appears in the records for this molecule with hα4 and β1 integrins (Homo sapiens, UniProt P05556+P13612)? CCOC1CCN([C@H]2C[C@@H](CO[C@H]3CC[C@H](C(=O)O)CC3)N(C(=O)Cc3cc(Cl)c(NC(=O)c4coc5ccccc45)cc3Cl)C2)CC1 [Example 105]
[out] 2

[in] Tell me reported Ki for O=C(Nc1cc(F)c(CC(=O)N2C[C@@H](N3CCN(CC(F)(F)F)CC3)C[C@H]2CO[C@H]2CC[C@H](C(=O)O)CC2)cc1Cl)c1coc2ccccc12 [Example 126] , tested with hα4 and β1 integrins (Homo sapiens, UniProt P05556+P13612).
[out] 2.4

[in] Quick check: Ki on hα4 and β1 integrins (Homo sapiens, UniProt P05556+P13612), item CCC1(OC)CN([C@H]2C[C@@H](CO[C@H]3CC[C@H](C(=O)O)CC3)N(C(=O)Cc3cc(Cl)c(NC(=O)c4csc5ccccc45)cc3F)C2)C1 [Example 17] ?
[out] 1.8

[in] Test system hα4 and β1 integrins (Homo sapiens, UniProt P05556+P13612); read-out Ki; what value for O=C(Nc1cc(F)c(CC(=O)N2C[C@@H](N3CCCS3(=O)=O)C[C@H]2CO[C@H]2CC[C@H](C(=O)O)CC2)cc1Cl)c1coc2ccccc12 [Example 70] ?
[out] 18

[in] What reported Ki corresponds to Cn1nc(C(=O)Nc2ccc(CC(=O)N3C[C@@H](N4CCN(CC(F)(F)F)CC4)C[C@H]3CO[C@H]3CC[C@H](C(=O)O)CC3)cc2Cl)c2ccccc21 [Example 128] on hα4 and β1 integrins (Homo sapiens, UniProt P05556+P13612)?
[out] 3.9

[in] Entry COc1cc(CC(=O)N2C[C@@H](N3CCN(CC(F)(F)F)CC3)C[C@H]2CO[C@H]2CC[C@H](C(=O)O)CC2)ccc1NC(=O)c1csc2ccccc12 [Example 133] , system hα4 and β1 integrins (Homo sapiens, UniProt P05556+P13612): what Ki was measured?
[out] 1.3

----------
For each entry below, report its AUC (ng · h/ml): total area under the plasma concentration versus time curve value.
test: Test for pharmacokinetics and oral absorbability in monkeys; assay type: in vivo; details: orally 0.5 mg/kg, single agent, plasma, LC/MS/MS
Number in ng·h/mL, nothing else.

[in] What value of AUC (ng · h/ml): total area under the plasma concentration versus time curve has been reported for the following compound? CO[C@H]1CN([C@H]2C[C@@H](CO[C@H]3CC[C@H](C(=O)O)CC3)N(C(=O)Cc3cc(Cl)c(NC(=O)c4csc5ccccc45)cc3Cl)C2)C[C@H]1OC [Example 58]
[out] 7555

[in] Given the compound COC1CN([C@H]2C[C@@H](CO[C@H]3CC[C@H](C(=O)O)CC3)N(C(=O)Cc3cc(Cl)c(NC(=O)c4cn(C)c5ccccc45)cc3Cl)C2)C1 (relative stereo) [Example 2] , what is its reported AUC (ng · h/ml): total area under the plasma concentration versus time curve?
[out] 22185

[in] Dear colleague, I am looking for the recorded AUC (ng · h/ml): total area under the plasma concentration versus time curve of the following compound: CC1CN([C@H]2C[C@@H](CO[C@H]3CC[C@H](C(=O)O)CC3)N(C(=O)Cc3cc(Cl)c(NC(=O)c4cn(C)c5ccccc45)cc3Cl)C2)C1 [Example 10]
[out] 10799

[in] What measured AUC (ng · h/ml): total area under the plasma concentration versus time curve goes with C[C@@H]1CN([C@H]2C[C@@H](CO[C@H]3CC[C@H](C(=O)O)CC3)N(C(=O)Cc3cc(Cl)c(NC(=O)c4coc5ccccc45)cc3Cl)C2)C[C@H](C)O1 [Example 83] ?
[out] 15064

[in] Entry under review: COC1CN([C@H]2C[C@@H](CO[C@H]3CC[C@H](C(=O)O)CC3)N(C(=O)Cc3cc(Cl)c(NC(=O)c4csc5ccccc45)cc3F)C2)C1 (relative stereo) [Example 3] . Reported AUC (ng · h/ml): total area under the plasma concentration versus time curve?
[out] 32510

[in] For Cn1cc(C(=O)Nc2cc(Cl)c(CC(=O)N3C[C@@H](N4CCN(C5CC5)CC4)C[C@H]3CO[C@H]3CC[C@H](C(=O)O)CC3)cc2Cl)c2ccccc21 [Example 139] , what is its reported AUC (ng · h/ml): total area under the plasma concentration versus time curve?
[out] 7329

----------
target: hα4 and β1 integrins (Homo sapiens, UniProt P05556+P13612); test: In vitro inhibition of binding between CHO cells expressing hα4 and β1 integrins and Eu3+-hVCAM-1 D1D7-IgG; conditions: CHO cells expressing hα4 and β1 integrins; Eu3+-hVCAM-1 D1D7-IgG ligand; without HSA
Please go through the items and note down their Ki.
Please answer using the number first and the unit second.

[in] // query Ki value for entry COC1CN([C@H]2C[C@@H](CO[C@H]3CC[C@H](C(=O)O)CC3)N(C(=O)Cc3cc(Cl)c(NC(=O)c4csc5ccccc45)cc3F)C2)C1 (relative stereo)
[out] 0.97 nM

[in] Which Ki reading was recorded for the compound Cn1cc(C(=O)Nc2cc(Cl)c(CC(=O)N3C[C@@H](N4CC5CC4CN5C4CC4)C[C@H]3CO[C@H]3CC[C@H](C(=O)O)CC3)cc2Cl)c2ccccc21 (some centres unmarked) ?
[out] 13 nM

[in] Return reported Ki; argument: CN(C)C(=O)C1CCN([C@H]2C[C@@H](CO[C@H]3CC[C@H](C(=O)O)CC3)N(C(=O)Cc3cc(Cl)c(NC(=O)c4coc5ccccc45)cc3Cl)C2)CC1
[out] 1.8 nM

[in] Quick one: Ki for O=C(Nc1cc(F)c(CC(=O)N2C[C@@H](N3CCS(=O)(=O)CC3)C[C@H]2CO[C@H]2CC[C@H](C(=O)O)CC2)cc1Cl)c1coc2ccccc12 ?
[out] 1.8 nM

[in] # lookup: Ki of O=C(Nc1cc(F)c(CC(=O)N2C[C@@H](n3ccnc3)C[C@H]2CO[C@H]2CC[C@H](C(=O)O)CC2)cc1Cl)c1csc2ccccc12
[out] 1.2 nM

----------
target: hα4 and β1 integrins (Homo sapiens, UniProt P05556+P13612); assay: In vitro inhibition of binding between CHO cells expressing hα4 and β1 integrins and Eu3+-hVCAM-1 D1D7-IgG; conditions: in the presence of 3% human serum albumin (HSA final concentration 3%)
Measured IC50 determines class: low = under 0.009 µM, moderate = from 0.009 µM up to 0.02 µM, high = 0.02 µM and over

[in] Which class does Cn1cc(C(=O)Nc2cc(Cl)c(CC(=O)N3C[C@@H](N4CCN(C5CC5)CC4)C[C@H]3CO[C@H]3CC[C@H](C(=O)O)CC3)cc2Cl)c2ccccc21 fall in?
[out] moderate

[in] Lab log: CO[C@@H]1CN([C@H]2C[C@@H](CO[C@H]3CC[C@H](C(=O)O)CC3)N(C(=O)Cc3cc(Cl)c(NC(=O)c4cn(C)c5ccccc45)cc3Cl)C2)C[C@H]1OC — assign IC50 category
[out] high

[in] Which IC50 category applies to CN1CCN([C@H]2C[C@@H](CO[C@H]3CC[C@H](C(=O)O)CC3)N(C(=O)Cc3cc(Cl)c(NC(=O)c4csc5ccccc45)cc3Cl)C2)CC1=O here?
[out] moderate

[in] Textbook exercise: identify the category of the compound given here, CC1CCN([C@H]2C[C@@H](CO[C@H]3CC[C@H](C(=O)O)CC3)N(C(=O)Cc3cc(Cl)c(NC(=O)c4csc5ccccc45)cc3F)C2)CC1 , according to its measured value.
[out] low

[in] State the class of the compound shown: CCO[C@H]1[C@H](N2CCCCC2)CN(C(=O)Cc2cc(Cl)c(NC(=O)c3cn(C)c4ccccc34)cc2F)[C@@H]1CO[C@H]1CC[C@H](C(=O)O)CC1
[out] low

[in] Record COC1CCN([C@H]2C[C@@H](CC[C@H]3CC[C@H](C(=O)O)CC3)N(C(=O)Cc3cc(Cl)c(NC(=O)c4cn(C)c5ccccc45)cc3Cl)C2)CC1 — which class?
[out] moderate

[in] Which of the defined bands does the recorded IC50 of COC[C@H]1CC[C@H](COC)N1[C@H]1C[C@@H](CO[C@H]2CC[C@H](C(=O)O)CC2)N(C(=O)Cc2cc(Cl)c(NC(=O)c3csc4ccccc34)cc2F)C1 sit within?
[out] high

[in] Pick a category. Item: CO[C@H]1CN([C@H]2C[C@@H](CO[C@H]3CC[C@H](C(=O)O)CC3)N(C(=O)Cc3cc(Cl)c(NC(=O)c4coc5ccccc45)cc3Cl)C2)C[C@@H]1OC
[out] high

[in] Please classify: Cn1cc(C(=O)Nc2cc(Cl)c(CC(=O)N3C[C@@H](N4CCN(C(=O)C(C)(C)C)CC4)C[C@H]3CO[C@H]3CC[C@H](C(=O)O)CC3)cc2Cl)c2ccccc21
[out] high
